# assayedTarget: human GLP-1 receptor (human, UniProt P43220 24-463)
# assayProtocol: cell-based or functional assay
Bridge positions count the residues as written; N and C are the ends. Square brackets hold non-standard residues; d marks the D form. Ends that are not written are not given here. * marks the point of attachment. Acetyl(2-(4-imidazolyl)) = O=C(Cc1c[nH]cn1)*; Aib = CC(C)(N)C(=O)O
Class (by In vitro activity compared to native peptide (%) vs GLP-1) -- A = under 20%, B = from 20% up to 60%, C = 60% and over

binder | labelClass
Y[Aib]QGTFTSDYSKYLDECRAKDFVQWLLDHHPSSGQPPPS (bridge 16-20) [Triple agonist of SEQ ID NO: 66] | A
H[Aib]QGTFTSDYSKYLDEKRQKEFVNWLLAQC (bridge (positions not given here); also: ring formation between underlined amino acids, places not given here) [Triple agonist of SEQ ID NO: 56] | B
{Acetyl(2-(4-imidazolyl))}-[Aib]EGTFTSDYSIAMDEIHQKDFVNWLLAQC (bridge 15-19) [Triple agonist of SEQ ID NO: 83] | B
H[Aib]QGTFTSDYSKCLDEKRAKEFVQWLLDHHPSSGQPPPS (bridge 16-20) [Triple agonist of SEQ ID NO: 65] | C
H[Aib]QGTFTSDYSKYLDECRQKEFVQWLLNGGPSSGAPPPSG (bridge 16-20) [Triple agonist of SEQ ID NO: 37] | C
Y[Aib]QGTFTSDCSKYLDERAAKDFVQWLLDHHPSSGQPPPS (bridge 16-20) [Triple agonist of SEQ ID NO: 72] | A
Y[Aib]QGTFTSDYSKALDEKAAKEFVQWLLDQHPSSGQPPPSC (bridge 16-20) [Triple agonist of SEQ ID NO: 100] | B
H[Aib]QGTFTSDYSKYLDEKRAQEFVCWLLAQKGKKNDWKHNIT [Triple agonist of SEQ ID NO: 28] | A
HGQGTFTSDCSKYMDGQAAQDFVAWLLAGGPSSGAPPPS [Triple agonist of SEQ ID NO: 45] | A
Y[Aib]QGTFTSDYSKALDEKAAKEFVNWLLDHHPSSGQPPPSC (bridge 16-20) [Triple agonist of SEQ ID NO: 98] | B
Y[Aib]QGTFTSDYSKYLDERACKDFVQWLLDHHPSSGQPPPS (bridge 16-20) [Triple agonist of SEQ ID NO: 71] | C
